Where these numbers come from: PubChem BioAssay (NCI)

# Test system: NCI-H226 lung
# test_summary: NCI-60 one-dose screen, 48 h (100 = growth as untreated, 0 = no growth, -100 = all killed)
# condition_label: 10 µM unless noted
This is part of a sample that, as a whole, favours compounds with a hit. Of some 83,000 tested, about 20% had one in any assay. The source made the active and inactive calls. The calls were made as follows: active = growth percent below 10; inactive = the rest.
Quick reference: growth of the listed items.

>  <compound>
Cc1ccc(C[As+](c2ccccc2)(c2ccccc2)c2ccccc2)cc1

>  <growth>
8.52% (active)

$$$$
>  <compound>
CC1(C)N=C(N)N=C(N)N1c1ccc(OCCCCNC(=O)c2ccc(S(=O)(=O)F)cc2)c(Cl)c1

>  <growth>
117% (inactive)

$$$$
>  <compound>
[Br][Pb]([c]1ccccc1)([c]1ccccc1)[c]1ccccc1

>  <growth>
-44.6% (active)

$$$$
>  <compound>
Nc1c(Br)cc([N+](=O)[O-])cc1[N+](=O)[O-]

>  <growth>
92.9% (inactive)

$$$$
>  <compound>
Cc1cc(NC(=O)/C=C/c2ccc([N+](=O)[O-])cc2)ccc1S(=O)(=O)F

>  <growth>
105% (inactive)

$$$$
>  <compound>
OC1(c2ccc(Cl)cc2Cl)c2ccccc2C2=NCCN21 (centres undefined)

>  <growth>
71.3% (inactive)

$$$$
>  <compound>
CCCCN(CCCC)CC(O)c1ccccc1 (centres undefined)

>  <growth>
113% (inactive)

$$$$
>  <compound>
O=[N+]([O-])c1cccc([As]=[As]c2cccc([N+](=O)[O-])c2)c1 (centres undefined)

>  <growth>
-60.7% (active)

$$$$
>  <compound>
CCOC(=O)Nc1cc(Cl)c([N+](=O)[O-])c(NC(=O)OCC)n1

>  <growth>
100% (inactive)

$$$$
>  <compound>
CCCCCCCCCCCCOc1ccc(C(=O)Oc2ccc(CSP3(=O)OCC4OC(n5cnc6c(N)ncnc65)C(F)C4OP(=O)(O)OCC4OC(n5ccc(=O)[nH]c5=O)C(F)C4O3)cc2)cc1 (centres undefined)

>  <growth>
85.5% (inactive)

$$$$
>  <compound>
C[CH2][Pb]([CH2]C)([CH2]C)[O]C(=O)COC

>  <growth>
6.09% (active)

$$$$
>  <compound>
O=C1c2ccccc2C(=O)N1[N+](=O)[O-]

>  <growth>
95.6% (inactive)

$$$$
>  <compound>
C=CC(=O)NC(O)C(Cl)(Cl)Cl (centres undefined)

>  <growth>
112% (inactive)

$$$$
>  <compound>
ClCCN(CCCl)C(c1ccccc1)c1ccc(Cl)cc1 (centres undefined)

>  <growth>
75.4% (inactive)

$$$$
>  <compound>
CC(=O)N(C)C1=Nc2ccc(Cl)cc2C(c2ccccc2)=[N+]([O-])C1

>  <growth>
105% (inactive)

$$$$
>  <compound>
CCCCCN(CCCCC)CC(O)c1ccc(C)c(Cl)c1 (centres undefined)

>  <growth>
84.4% (inactive)

$$$$
>  <compound>
CCCCCCCC(=O)OCC/C=C/C1OC1C1OC(=O)/C=C\C=C\c2nc(oc2C)/C=C(/C)CCC2OC2C1OC(=O)NC(C)=O (centres undefined)

>  <growth>
-37.5% (active)

$$$$
>  <compound>
CCN(CC)c1ccc(C=C2C(=O)NC(=S)NC2=O)cc1

>  <growth>
85.5% (inactive)

$$$$
>  <compound>
N#C[Se]CCN1C(=O)C2C(C1=O)[C@H]1C=C[C@@H]2S1 (some centres undefined)

>  <growth>
-54.6% (active)

$$$$
>  <compound>
COc1ccc(NP2(=O)OCC(C)(N)CO2)cc1 (centres undefined)

>  <growth>
105% (inactive)

$$$$
>  <compound>
O=C(/C=C/c1ccccc1)N[C@@H](CO)Cc1cnc[nH]1

>  <growth>
94% (inactive)

$$$$
>  <compound>
CC[C@@H](C)/C=C(C)/C=C/C(=O)c1c(O)c(-c2ccc(O)cc2)cn(O)c1=O

>  <growth>
-1.76% (active)

$$$$
>  <compound>
c1ccc(CCN2CCCCC2Cc2ccccc2)cc1 (centres undefined)

>  <growth>
102% (inactive)

$$$$
>  <compound>
Cc1cccc(N=C2c3cc([N+](=O)[O-])ccc3-c3c2cc([N+](=O)[O-])cc3[N+](=O)[O-])c1

>  <growth>
80.1% (inactive)

$$$$
>  <compound>
NC(=O)OCC(CO)(c1ccccc1)c1ccccc1

>  <growth>
96.2% (inactive)

$$$$
>  <compound>
CC1(C)N=C(N)N=C(N)N1c1ccc(CCCCc2ccc(S(=O)(=O)F)cc2)c(Cl)c1

>  <growth>
31.8% (inactive)

$$$$
>  <compound>
CC(=O)N1N=C(c2ccccc2)CC1c1sc(N(CCCl)CCCl)nc1Cl (centres undefined)

>  <growth>
89.1% (inactive)

$$$$
>  <compound>
O=[N+]([O-])c1ccc(/C=C/C=C/c2ccc(S(=O)(=O)F)cc2)c(Cl)c1

>  <growth>
99.8% (inactive)

$$$$
>  <compound>
Nc1cccc2c1Oc1ccccc1O2

>  <growth>
86.2% (inactive)

$$$$
>  <compound>
CNC(=O)O/N=C(/C)c1ccc(Cl)cc1

>  <growth>
92.1% (inactive)

$$$$
>  <compound>
C#CC1(O)CCC2(C)C(CCC3C4CCC(=O)C4(C)CCC32)C1 (centres undefined)

>  <growth>
86.4% (inactive)

$$$$
>  <compound>
O=C(O)CC(Br)C(=O)CBr (centres undefined)

>  <growth>
91.9% (inactive)

$$$$
>  <compound>
OC1(c2ccccc2F)c2ccccc2C2=NCCN21 (centres undefined)

>  <growth>
84.8% (inactive)

$$$$
>  <compound>
COC1=CC(=O)OC(CCc2ccc3c(c2)OCO3)C1 (centres undefined)

>  <growth>
105% (inactive)

$$$$
>  <compound>
C[C@@H]1CC[C@@H]2[C@@H]1[C@H](OC(=O)/C=C/C1CCCCC1)[C@]1(C3CCCCC3)C[C@@H](OC(=O)CO)[C@@]2(C)O1

>  <growth>
56.9% (inactive)

$$$$
>  <compound>
COc1ccc2c(c1)NC1=C(C(=O)OC1)C2c1cc(OC)c(OC)c(OC)c1 (centres undefined)

>  <growth>
49.6% (inactive)

$$$$
>  <compound>
CC(=O)C1C(=O)N(C)C(=O)N(C)C1=O

>  <growth>
95.4% (inactive)

$$$$
>  <compound>
Cc1cc(NC(=O)CCc2ccc(N3C(N)=NC(N)=NC3(C)C)cc2)ccc1S(=O)(=O)F

>  <growth>
37.4% (inactive)

$$$$
>  <compound>
COc1cc2c(cc1OC)CN(C)C(C)C2 (centres undefined)

>  <growth>
96.8% (inactive)

$$$$
>  <compound>
Nc1c(Br)cc2c3c(cccc13)-c1ccccc1-2

>  <growth>
89.3% (inactive)

$$$$
>  <compound>
COc1cc(C2CC(=O)Nc3nc(N)[se]c32)cc(OC)c1OC (centres undefined)

>  <growth>
103% (inactive)

$$$$
>  <compound>
CC[C@H](C)[C@H](NC(=O)Nc1ccccc1)C(=O)N(C)[C@H](C[C@@H](OC(C)=O)c1nc(C(=O)N[C@@H](Cc2ccccc2)C[C@H](C)C(=O)OC)cs1)C(C)C

>  <growth>
24.5% (inactive)

$$$$
>  <compound>
O=C(O)c1nn(Cc2ccc(Cl)cc2)c2ccccc12

>  <growth>
101% (inactive)

$$$$
>  <compound>
Cc1cc(C)nc(C)c1.[Cl][Hg][Cl]

>  <growth>
120% (inactive)

$$$$
